Target: Prostaglandin G/H synthase 1 (Ovis aries, UniProt P05979)
Sequence (P05979 whole entry): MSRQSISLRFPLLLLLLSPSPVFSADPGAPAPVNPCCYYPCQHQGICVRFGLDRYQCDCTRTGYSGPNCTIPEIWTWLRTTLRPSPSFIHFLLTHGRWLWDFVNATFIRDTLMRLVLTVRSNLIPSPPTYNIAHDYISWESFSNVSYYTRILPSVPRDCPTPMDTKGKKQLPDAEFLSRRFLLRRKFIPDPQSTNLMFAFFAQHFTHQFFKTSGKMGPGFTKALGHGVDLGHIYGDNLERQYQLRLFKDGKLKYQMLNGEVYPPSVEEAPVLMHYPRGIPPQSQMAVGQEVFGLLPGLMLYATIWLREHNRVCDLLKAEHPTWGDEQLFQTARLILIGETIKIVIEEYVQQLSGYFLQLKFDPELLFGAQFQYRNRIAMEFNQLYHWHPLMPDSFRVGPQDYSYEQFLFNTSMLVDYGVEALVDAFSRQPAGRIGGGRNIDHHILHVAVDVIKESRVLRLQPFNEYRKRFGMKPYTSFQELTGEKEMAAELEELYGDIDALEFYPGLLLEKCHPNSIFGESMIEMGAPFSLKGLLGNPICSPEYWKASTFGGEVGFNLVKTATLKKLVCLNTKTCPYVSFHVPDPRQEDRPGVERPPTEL
PROPERTY_NAME: IC50 (µM)
Dear colleague, please return just the value in µM, with no unit written.

*Q* Identify measured IC50 associated with NS(=O)(=O)c1ccc(N2N=C(c3ccc(Cl)cc3)CC2c2ccc(Cl)cc2)cc1 (stereo not given)
*A* 5.11

*Q* Please give measured IC50 of the following entry: CS(=O)(=O)c1ccc(N2N=C(c3ccc(Cl)cc3)CC2c2ccc(Cl)cc2)cc1 (stereo not given)
*A* 9.89

*Q* Entry COc1ccc(C2CC(c3ccc(Cl)cc3)=NN2c2ccc(S(C)(=O)=O)cc2)cc1 (stereo not given) needs its IC50 filled in; supply it.
*A* 10.2

Further cases:
*Q* Name the recorded IC50 of the item COc1cc(C2CC(c3ccc(Br)cc3)=NN2c2ccc(S(N)(=O)=O)cc2)cc(OC)c1OC (stereo not given) in your answer.
*A* 7.52

*Q* Annotate the molecule COc1cc(C2CC(c3ccc(Br)cc3)=NN2c2ccc(S(C)(=O)=O)cc2)cc(OC)c1OC (stereo not given) with its measured IC50.
*A* 8.65
